Test system: ESR1 transcription in MVLN cells
Experiment: Repression of ESR1 transcription, MVLN luciferase reporter assay
Format: cell-based
Settings: Homo sapiens, luciferase signal after 24 h, read-out: MVLN reporter assay, IC50[M] (arithmetic mean)
Protocol: KAT6A controls transcription of the ESR1 gene in breast cancer cells. Compound treatment that interferes with this mechanism was quantified using MVLN cells. […] The repressive effect on ERα transcription activity of a test chemical is directly related to the luciferase measured in the lysate of treated MVLN cells. Each sample was prepared as duplicate and rim wells were excluded. […] Then fluorescence was measured with Victor X3 (Perkin Elmer) at 530 nm/590 nm.
Listing of entries alongside the reported IC50.

compound | limit sign | IC50, M
CN(C)c1cc(C2CC2)cc2oc(C(=O)NS(=O)(=O)c3ccccc3)cc12 | > | 2e-05
O=C(O)c1ccc2cc(C(=O)NS(=O)(=O)c3ccccc3-c3ccccc3)oc2c1 | > | 2e-05
CCOc1ccccc1S(=O)(=O)NC(=O)c1cc2c(-n3ccnc3)cc(C3CC3)cc2o1 | > | 2e-05
CCCOc1ccccc1S(=O)(=O)NC(=O)c1cc2c(F)cc(C3CC3)cc2o1 | = | 6.63e-07
CC(C)c1ccc(OC2CCC2)c(S(=O)(=O)NC(=O)c2cc3c(F)cc(C4CC4)cc3o2)c1 | = | 1.49e-07
CC(C)c1ccc2cc(C(=O)NS(=O)(=O)c3ccc(Cl)cc3Cl)oc2c1 | = | 1.21e-05
Cc1ccc2cc(C(=O)NS(=O)(=O)c3ccccc3-c3ccccc3)oc2c1 | = | 1.11e-05
Cc1ccc2cccc(S(=O)(=O)NC(=O)c3cc4c(C(F)(F)F)cc(C5CC5)cc4o3)c2n1 | = | 1.95e-06
Cc1cc(C)c2cc(C(=O)NS(=O)(=O)c3ccccc3-c3ccccc3)oc2c1 | = | 2.5e-06
COc1cc(C)cc2oc(C(=O)NS(=O)(=O)c3ccc(C)cc3-c3ccccc3)cc12 | = | 6.05e-06
CC(C)Oc1ccc(C(C)(C)C)cc1S(=O)(=O)NC(=O)c1cc2c(F)cc(C3CC3)cc2o1 | = | 1.76e-07
Cc1ccc2cccc(S(=O)(=O)NC(=O)c3cc4c(OC(F)F)cc(C5CC5)cc4o3)c2n1 | = | 4.65e-06
CCOc1c(F)cccc1S(=O)(=O)NC(=O)c1cc2c(F)cc(C3CC3)cc2o1 | = | 1.7e-06
Cc1cc(C)c2cc(C(=O)NS(=O)(=O)c3ccccc3-c3ccccc3C)oc2c1 | = | 5.55e-06
CN(C)c1cc(C2CC2)cc2oc(C(=O)NS(=O)(=O)c3ccccc3-c3ccccc3)cc12 | = | 1.16e-05
Cc1cc(C)c2cc(C(=O)NS(=O)(=O)c3cccc4ccc(C)nc34)oc2c1 | = | 1.17e-06
CCOc1ccccc1S(=O)(=O)NC(=O)c1oc2cc(C)ccc2c1C | = | 5.56e-06
CN(C)C(=O)c1ccc2cc(C(=O)NS(=O)(=O)c3ccccc3-c3ccccc3)oc2c1 | > | 2e-05
Cc1ccc(S(=O)(=O)NC(=O)c2cc3c(C)cc(C)cc3o2)c(-c2ccccc2)c1 | = | 4.54e-06
CC(C)c1ccc2cc(C(=O)NS(=O)(=O)c3ccccc3-c3ccccc3)oc2c1 | = | 3.02e-06
CCOc1ccc(C(C)C)cc1S(=O)(=O)NC(=O)c1cc2c(F)cc(C3CC3)cc2o1 | = | 1.23e-07
CCOc1ccc(F)cc1S(=O)(=O)NC(=O)c1cc2c(F)cc(C3CC3)cc2o1 | = | 4.23e-07
CCC(C)c1ccc2cc(C(=O)NS(=O)(=O)c3ccccc3-c3ccccc3)oc2c1 (stereo not shown) | > | 2e-05
COc1cc(C)cc2oc(C(=O)NS(=O)(=O)c3ccccc3-c3ccccc3)cc12 | = | 1e-05
O=C(NS(=O)(=O)c1ccccc1-c1ccccc1)c1cc2ccc(-c3ccc(F)cc3)cc2o1 | = | 1.31e-05
